The reported numbers originate from paper PMC10877733.

target: Kir6.2/SUR1 (Homo sapiens); construct: also transiently transfected HEK293T; assay: Thallium flux assay of Kir6.2/SUR1 in HEK293 cells; settings: thallium flux, Table 1 selectivity profile
Sequence (Q09428 whole entry, species assumed): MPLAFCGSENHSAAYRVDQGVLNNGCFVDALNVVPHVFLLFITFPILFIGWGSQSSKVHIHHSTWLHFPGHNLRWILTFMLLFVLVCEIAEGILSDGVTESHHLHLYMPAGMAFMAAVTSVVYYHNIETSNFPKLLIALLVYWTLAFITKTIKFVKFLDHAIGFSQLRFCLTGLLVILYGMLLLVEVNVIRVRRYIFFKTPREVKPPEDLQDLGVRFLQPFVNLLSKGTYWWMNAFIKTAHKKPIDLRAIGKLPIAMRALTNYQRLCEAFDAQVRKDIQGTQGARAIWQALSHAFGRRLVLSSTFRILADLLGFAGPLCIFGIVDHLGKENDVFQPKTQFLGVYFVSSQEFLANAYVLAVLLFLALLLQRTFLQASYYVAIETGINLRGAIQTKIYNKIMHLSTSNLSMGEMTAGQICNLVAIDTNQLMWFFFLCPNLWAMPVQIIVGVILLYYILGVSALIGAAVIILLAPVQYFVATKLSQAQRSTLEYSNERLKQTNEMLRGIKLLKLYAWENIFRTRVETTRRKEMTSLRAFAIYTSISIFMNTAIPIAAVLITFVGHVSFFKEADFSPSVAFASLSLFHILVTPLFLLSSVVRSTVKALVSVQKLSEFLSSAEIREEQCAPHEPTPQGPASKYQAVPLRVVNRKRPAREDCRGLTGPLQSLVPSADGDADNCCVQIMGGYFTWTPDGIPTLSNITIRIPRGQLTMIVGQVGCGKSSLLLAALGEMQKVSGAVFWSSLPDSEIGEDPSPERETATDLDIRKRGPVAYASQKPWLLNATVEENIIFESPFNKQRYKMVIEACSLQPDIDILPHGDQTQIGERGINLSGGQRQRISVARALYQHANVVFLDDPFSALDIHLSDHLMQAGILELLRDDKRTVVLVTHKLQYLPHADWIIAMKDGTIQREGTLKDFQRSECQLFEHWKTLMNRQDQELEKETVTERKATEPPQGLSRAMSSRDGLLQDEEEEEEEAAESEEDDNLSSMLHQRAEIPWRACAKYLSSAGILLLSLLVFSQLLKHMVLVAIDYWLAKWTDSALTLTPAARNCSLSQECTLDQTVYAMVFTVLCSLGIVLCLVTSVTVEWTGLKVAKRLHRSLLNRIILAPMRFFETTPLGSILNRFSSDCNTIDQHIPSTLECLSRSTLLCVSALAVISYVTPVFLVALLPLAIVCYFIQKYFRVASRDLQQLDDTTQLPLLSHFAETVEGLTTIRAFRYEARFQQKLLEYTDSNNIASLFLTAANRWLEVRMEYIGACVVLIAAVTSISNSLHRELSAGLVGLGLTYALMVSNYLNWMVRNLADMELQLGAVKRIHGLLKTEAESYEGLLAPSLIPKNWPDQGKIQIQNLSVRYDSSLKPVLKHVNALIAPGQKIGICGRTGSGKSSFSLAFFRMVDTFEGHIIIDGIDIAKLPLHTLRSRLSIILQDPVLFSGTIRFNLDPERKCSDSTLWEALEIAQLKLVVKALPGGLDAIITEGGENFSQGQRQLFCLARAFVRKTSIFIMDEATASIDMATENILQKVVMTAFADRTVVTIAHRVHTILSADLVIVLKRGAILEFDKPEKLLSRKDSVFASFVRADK
Sequence (Q14654 whole entry partner, species assumed): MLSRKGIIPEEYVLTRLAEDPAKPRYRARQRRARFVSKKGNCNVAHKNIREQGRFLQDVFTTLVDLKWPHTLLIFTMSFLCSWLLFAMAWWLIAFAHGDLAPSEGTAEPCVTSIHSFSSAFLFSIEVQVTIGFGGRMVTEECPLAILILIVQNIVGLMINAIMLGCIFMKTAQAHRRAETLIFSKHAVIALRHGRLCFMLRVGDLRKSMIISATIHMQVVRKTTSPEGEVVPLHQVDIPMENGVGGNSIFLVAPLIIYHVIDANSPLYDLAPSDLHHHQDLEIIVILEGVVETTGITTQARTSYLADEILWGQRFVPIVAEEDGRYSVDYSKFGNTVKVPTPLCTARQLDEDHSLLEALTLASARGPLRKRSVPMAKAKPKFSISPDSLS
pIC50: −log10 of the molar value.
measure: pIC50

Qu. Please look up its pIC50: Cc1nc(-c2cccs2)sc1CNC(=O)Nc1cccs1 [VU0542270]
Ans. < 4.52

====

assay: Brain homogenate binding by equilibrium dialysis, rat; assay type: in vitro ADME; details: read-out: Fu, brain (rat)
measure: fraction unbound at 6 h, 1 µM
No unit in the answer, only the number.

Qu. Please look up its fraction unbound at 6 h, 1 µM: `Cc1nc(-c2cccs2)sc1CNC(=O)Nc1cccs1`
Ans. 0.02
